MEASUREMENT_TARGET: USP7 (Homo sapiens)
Sequence (Q93009 whole entry): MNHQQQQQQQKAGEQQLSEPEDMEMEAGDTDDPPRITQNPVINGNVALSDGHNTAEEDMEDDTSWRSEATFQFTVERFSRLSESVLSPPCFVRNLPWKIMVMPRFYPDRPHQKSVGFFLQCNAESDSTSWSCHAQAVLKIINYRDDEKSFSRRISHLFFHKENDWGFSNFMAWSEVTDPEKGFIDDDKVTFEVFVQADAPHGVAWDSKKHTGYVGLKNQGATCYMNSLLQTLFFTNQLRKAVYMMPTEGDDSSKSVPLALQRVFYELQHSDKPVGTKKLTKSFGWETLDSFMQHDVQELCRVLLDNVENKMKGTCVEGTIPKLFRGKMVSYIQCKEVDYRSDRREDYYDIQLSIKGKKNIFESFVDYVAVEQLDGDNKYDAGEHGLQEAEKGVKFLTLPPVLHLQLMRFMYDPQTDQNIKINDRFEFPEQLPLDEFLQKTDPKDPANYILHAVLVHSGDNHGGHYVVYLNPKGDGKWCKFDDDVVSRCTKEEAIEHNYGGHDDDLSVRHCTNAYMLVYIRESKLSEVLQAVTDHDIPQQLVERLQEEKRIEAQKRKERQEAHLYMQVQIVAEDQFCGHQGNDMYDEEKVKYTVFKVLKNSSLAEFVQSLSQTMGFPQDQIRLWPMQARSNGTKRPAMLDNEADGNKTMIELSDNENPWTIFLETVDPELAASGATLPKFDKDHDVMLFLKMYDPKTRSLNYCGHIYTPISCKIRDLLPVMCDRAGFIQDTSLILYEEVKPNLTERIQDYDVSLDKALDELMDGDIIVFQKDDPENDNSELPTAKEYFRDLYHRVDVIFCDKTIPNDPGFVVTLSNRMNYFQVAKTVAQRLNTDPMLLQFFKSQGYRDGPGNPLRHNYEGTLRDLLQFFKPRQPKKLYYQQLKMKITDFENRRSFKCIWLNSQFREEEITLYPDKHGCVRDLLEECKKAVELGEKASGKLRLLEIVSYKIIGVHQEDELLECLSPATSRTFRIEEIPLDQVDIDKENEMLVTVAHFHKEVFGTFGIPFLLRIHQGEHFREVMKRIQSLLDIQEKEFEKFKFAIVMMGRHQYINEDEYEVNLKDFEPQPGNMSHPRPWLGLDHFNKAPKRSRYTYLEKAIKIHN
PROTOCOL_NOTES: USP7 activity assay (Ub-AMC)
ASSAY_CONTEXT: 300 nM Ub-AMC, 100 pM enzyme, 30 min pre-incubation; read-out: USP7 (inhibition of deubiquitinating activity)
MEASURED_QUANTITY: IC50 (µM)

• CCN(CCCNC(=O)c1ccc2c(Cl)c3c(nc2c1)CCCC3)Cc1ccccc1 = 22.6
• CCN1CCCC1CNC(=O)c1ccc2c(Cl)c3c(nc2c1)CCCC3 (stereo not drawn) = 11.5
• CCN(CC)CCCNC(=O)c1ccc2c(Cl)c3c(nc2c1)CCCC3 = 29.2
• O=C(NCCCN1CCCC1)c1ccc2c(Cl)c3c(nc2c1)CCCC3 = 25.6

(A) CN(C)CCNC(=O)c1ccc2c(Cl)c3c(nc2c1)CCCC3
(B) Cc1cccc(CN2CCC(CNC(=O)c3ccc4c(Cl)c5c(nc4c3)CCCC5)CC2)c1
(C) O=C(c1ccc2c(Cl)c3c(nc2c1)CCCC3)N1CCC(N2CCCCC2)CC1
(Q) Put the molecules in ascending order of IC50. Answer by listing the labels in the order asked for.
(A) B, A, C
(B: 9.1 µM, A: 29.8 µM, C: 46 µM)
